Tested on: Staphylococcus aureus
Test: Antibacterial activity against methicillin resistant Staphylococcus aureus NRS 119 assessed as bacterial growth inhibition incubated for 18 to 24 hrs by broth microdilution method
Format: functional
Details: time 18-24 hrs
In this section we review reported MIC values for a set of compounds.
Just the number please, in µg/mL, no unit attached.

{"columns": ["compound", "measured-attribute", "assay-result"],
 "data": [
  ["C[C@H]1COc2c(N3CCN(C)CC3)c(F)cc3c(=O)c(C(=O)O)cn1c23 [LEVOFLOXACIN ANHYDROUS]", "MIC", 16],
  ["CCN1C(=O)[C@@]2(CN(C)C3(c4cc(Br)ccc4-n4c3nc3ccccc3c4=O)C2(C#N)C#N)c2ccccc21 (stereo not given in full)", "MIC", 0.125],
  ["CCN1C(=O)[C@@]2(CN(C)C3(c4cc(Cl)ccc4-n4c3nc3ccccc3c4=O)C2(C#N)C#N)c2ccccc21 (stereo not given in full)", "MIC", 0.125],
  ["C[C@@H](O)[C@H]1C(=O)N2C(C(=O)O)=C(S[C@@H]3CN[C@H](C(=O)N(C)C)C3)[C@H](C)[C@H]12", "MIC", 64]
]}

Next up:
Supply MIC value. Item: CCN1C(=O)[C@@]2(CN(C)C3(c4cc(OC)ccc4-n4c3nc3ccccc3c4=O)C2(C#N)C#N)c2ccccc21 (stereo not given in full) 0.25

---

System: Staphylococcus aureus
Assay: Antibacterial activity against methicillin resistant Staphylococcus aureus NRS 192 assessed as bacterial growth inhibition incubated for 18 to 24 hrs by broth microdilution method
Type: functional
Conditions: time 18-24 hrs
measured-attribute: MIC (µg/mL)
Just the number please, in µg/mL, no unit attached.

Solved cases below.
{"columns": ["molecule", "assay-result"],
 "data": [
  ["CCN1C(=O)[C@@]2(CN(C)C3(c4cc(OC)ccc4-n4c3nc3ccccc3c4=O)C2(C#N)C#N)c2ccccc21 (stereo not given in full)", 0.5],
  ["CCN1C(=O)[C@@]2(CN(C)C3(c4cc(Cl)ccc4-n4c3nc3ccccc3c4=O)C2(C#N)C#N)c2ccccc21 (stereo not given in full)", 0.25],
  ["CCN1C(=O)[C@@]2(CN(C)C3(c4cc(Br)ccc4-n4c3nc3ccccc3c4=O)C2(C#N)C#N)c2ccccc21 (stereo not given in full)", 0.125],
  ["C[C@@H](O)[C@H]1C(=O)N2C(C(=O)O)=C(S[C@@H]3CN[C@H](C(=O)N(C)C)C3)[C@H](C)[C@H]12", 8]
]}

Next up:
Supply MIC value. Item: C[C@H]1COc2c(N3CCN(C)CC3)c(F)cc3c(=O)c(C(=O)O)cn1c23 [LEVOFLOXACIN ANHYDROUS] 4

---

System: Staphylococcus aureus
Assay: Antibacterial activity against Staphylococcus aureus ATCC 29213 assessed as bacterial growth inhibition incubated for 18 to 24 hrs by broth microdilution method
Assay type: functional
Conditions: Staphylococcus aureus, ATCC 29213; time 18-24 hrs; read-out: MIC
measured-attribute: MIC (µg/mL)
Just the number please, in µg/mL, no unit attached.

Solved cases below.
{"columns": ["compound", "units", "assay-result"],
 "data": [
  ["CCN1C(=O)[C@]2(c3ccccc31)C(Cc1ccccc1)NC1(c3cc(Br)ccc3-n3c1nc1ccccc1c3=O)C2(C#N)C#N (stereo not given in full)", "µg/mL", 0.25],
  ["CCN1C(=O)[C@@]2(CN(C)C3(c4cc([N+](=O)[O-])ccc4-n4c3nc3ccccc3c4=O)C2(C#N)C#N)c2ccccc21 (stereo not given in full)", "µg/mL", 0.25],
  ["CCN1C(=O)[C@]2(c3ccccc31)C(C(=O)NCC(=O)O)NC1(c3cc(Cl)ccc3-n3c1nc1ccccc1c3=O)C2(C#N)C#N (stereo not given in full)", "µg/mL", 1],
  ["CCN1C(=O)[C@]2(c3ccccc31)C1CCCN1C1(c3ccccc3-n3c1nc1ccccc1c3=O)C2(C#N)C#N (stereo not given in full)", "µg/mL", 0.25]
]}

Next up:
Supply MIC value. Item: CN1C(=O)[C@@]2(CN(C)C3(c4ccccc4-n4c3nc3ccccc3c4=O)C2(C#N)C#N)c2ccccc21 (stereo not given in full) 8
